Origin of the recorded values: ChEMBL document CHEMBL4513216

Test system: Plasmodium berghei
experimental_protocol: Screen against P. berghei liver stage (PbLuc), transformed with Luciferase, at 10uM
Format: functional, HepG2
settings: tested at 10 uM
Among all 69,000 compounds or so, about 8,600 (12%) showed an effect of 50% or more. Many of the other results were omitted from the sample, so strong results are more common in it than they were.
measurement_name: INHIBITION (%)

# compound, recorded_number
data = [
    ("Cc1cc(Cc2cccc(C(F)(F)F)c2)cc(C2CCCNC2)n1 (configuration not stated)", 80.5),
    ("O=C(NCCCN1CCc2ccccc2C1)c1ccccc1Cl", -7.31),
    ("Cc1nc2n(n1)CC(NCC(=O)Nc1cc(C)on1)CC2 (configuration not stated)", 7.08),
    ("CC(C)c1ccc(-n2ncc(C(=O)NCC3COC(C)(C)O3)c2N)cc1 (configuration not stated)", -20.1),
    ("COC1CCN(C(=O)C2CC(=O)N(c3ccccc3Br)C2)CC1 (configuration not stated)", 61.7),
    ("O=C(NCc1cc(F)cc(Br)c1)C1(O)CCSCC1", -26.2),
    ("CCc1ccc(C(=O)N2CCC(N(C)C(=O)OC(C)(C)C)C2)o1 (configuration not stated)", 71.2),
    ("Cc1cccc(C(=O)NCCCN2CCc3ccccc3C2)c1C", 21.5),
    ("O=C(c1ccco1)N1CCOCC2(C1)CN(c1ccoc1)C(=O)CO2 (configuration not stated)", -8.28),
    ("CN(Cc1cnn(C)c1)C1CCN(c2cccc(-c3cscn3)c2)CC1", 45.6),
    ("Cn1cc(C2CCCN2C(=O)Cn2c(=O)oc3ccccc32)cn1 (configuration not stated)", -19.1),
    ("CC(C)=CCN1CCN(C(=O)c2cc(C(C)C)no2)[C@H]2CS(=O)(=O)C[C@H]21", -7.25),
    ("Cc1cc(C(=O)N(C)C)nc(C2(C)CCCN2c2ccccc2)n1 (configuration not stated)", 23.9035),
    ("CC(C)c1nc(CN2CCN(CC(O)c3ccccc3)CC2)no1 (configuration not stated)", 21.5),
    ("CS(=O)(=O)c1ccccc1C(=O)NCCCN1CCc2ccccc2C1", 52.1),
    ("CN1C(=O)C(c2ccccc2)CC12CCN(CCO)CC2 (configuration not stated)", -9.26),
    ("Cc1cc(C(=O)NCc2ccc(F)cc2)nc(C2CCCN2C)n1 (configuration not stated)", -3.31),
    ("Cc1cc(Cc2ccccc2)cc(C2CCCNC2)n1 (configuration not stated)", 28.5),
    ("COc1ccc(CN2C[C@H]3CCC[C@@H](CN(C)C4CC4)[C@H]3C2)cn1", -15.3),
    ("CCOC(=O)c1sc(NC(=O)C(C)(C)C)c(C#N)c1C", -43.6),
    ("CCOCC(=O)Nc1cccc(Oc2ccccn2)c1", -13.4),
    ("Cc1nccc(C2CCCCN2Cc2ccc(F)cc2)n1 (configuration not stated)", 41.2),
    ("Cc1ccc(C(=O)N2CCCC(N(C)C(=O)OC(C)(C)C)C2)o1 (configuration not stated)", 37.8),
    ("O=C(C1CC(=O)N(c2ccccc2Br)C1)N1CCCCCC1 (configuration not stated)", 21.8),
    ("Cc1ccsc1CN(CCCN(C)C)Cc1ccccn1", 2.6),
    ("CN(C(=O)OC(C)(C)C)C1CCN(C(=O)c2ccc(Cl)o2)C1 (configuration not stated)", -12.3),
    ("Cc1n[nH]c(C)c1CCc1nc(C2CC2)n[nH]1", 50.7),
    ("CN(Cc1ccon1)C1CCN(c2cccc(-c3cscn3)c2)CC1", 30.9),
    ("COCC(=O)N1CCC[C@]2(C(=O)N(C)C)CN(c3ccccn3)C[C@@H]2C1", -4.56),
    ("Cc1ccc(F)cc1S(=O)(=O)NCc1[nH]ncc1Br", 1.62),
    ("CCC1C(=O)NCCN1c1cc(C)ncn1 (configuration not stated)", 26.8),
    ("COc1ccc(C(=O)N2CC[C@](C)(O)[C@H](C)C2)cc1N1CCOCC1", 54.4),
    ("O=C([C@H]1CCCO1)N1CC[C@@H](O)[C@@H]1Cc1ccccc1", 21.1),
    ("CCC(C)NC(=O)c1cc(S(=O)(=O)N2CCCC2)c(C)s1 (configuration not stated)", 28.3),
    ("CS(=O)(=O)c1cccc(C(=O)NCC2(c3ccccc3)CC2)c1", 86.8),
    ("Cc1cccc(Cc2cc(C)nc(C3CCCNC3)c2)c1 (configuration not stated)", 54.5),
    ("Cc1nc(C)c(Cc2nc(C3CC3)n[nH]2)c(=O)[nH]1", 29),
    ("O=C(c1cnccn1)N1CCN(Cc2cscn2)CC1", 25.85),
    ("CNC(=O)c1ccc(C2CN(C(=O)c3coc(C)n3)CCO2)nc1 (configuration not stated)", -24.1),
    ("Cc1cccc(C(=O)N2CCCC(Cc3cncc4ccccc34)C2)n1 (configuration not stated)", -22.6),
    ("CN(CC(=O)N1CCc2[nH]c3ccccc3c2C1)CC1OCCO1", 22.9),
    ("CCc1nn(C)c2[nH]nc(NC(=O)c3ccccc3COC)c12", 33.7),
    ("CC(c1ccncc1)n1cc2nc(N(C)C)[nH]cc-2c1=O (configuration not stated)", -27.5),
    ("CCn1cnnc1C1CCN(C(=O)c2cc(F)ccc2OC)CC1", 33.3),
    ("Cc1cc(Cc2ccccc2F)cc(C2CCCNC2)n1 (configuration not stated)", 36.9),
    ("O=C(N1CCOCC1)[C@@]12CCO[C@@H]1CCN(C1CCCCC1)C2", 0.542),
    ("CS(=O)(=O)c1cccc(C(=O)NCCCN2CCc3ccccc3C2)c1", 56.4),
]

###

Test system: Plasmodium berghei
experimental_protocol: Screen against P. berghei liver stage (PbLuc), transformed with Luciferase, at 10uM
Format: functional, HepG2
settings: tested at 10 uM
Out of some 69,000 compounds screened, about 8,600 (12%) showed an effect of 50% or more. The full list was thinned out, with strong results kept by preference.
measurement_name: INHIBITION (%)

# compound, recorded_number
records = [
    ("Cc1cnn(CC2CCCN2Cc2nc(C)c3ccccc3n2)c1 (configuration not stated)", 53),
    ("c1ccc(-n2cc(CN3CCCC3Cn3cncn3)nn2)cc1 (configuration not stated)", 50.3),
    ("COCC1CC2(CCN(c3cccc(C)n3)CC2)CN1c1ncccn1 (configuration not stated)", 46.6),
    ("Cc1cc(NC(=O)NCC2CCN(C(C)C)C2)no1 (configuration not stated)", -25.8),
    ("Nc1nc(CN2CCCC2Cn2cncn2)nc2ccccc12 (configuration not stated)", -26.22),
    ("O=C1CCCN1CCN1CCCCC1Cn1cncn1 (configuration not stated)", -19.2),
    ("c1ccc(-n2ccc(CN3CCCC3Cn3cncn3)n2)cc1 (configuration not stated)", 9.64),
    ("Cc1cnn(CC2CCCCN2Cc2nc(C)c3ccccc3n2)c1 (configuration not stated)", 36.1),
    ("O=C1CCCN1CCCN1CCCCC1Cn1cncn1 (configuration not stated)", 50.4),
    ("O=C(N1CCCC1)N1CCn2c(nnc2C2CCCN2)C1 (configuration not stated)", 27.5),
    ("CCSc1ncc(Cl)c(C(=O)NC(CCSC)C(=O)O)n1 (configuration not stated)", 15.9),
    ("O=C1CCCN1CCCN1CCCC1Cn1cccn1 (configuration not stated)", 24.6),
]

###

Test system: Plasmodium berghei
experimental_protocol: Screen against P. berghei liver stage (PbLuc), transformed with Luciferase, at 10uM
Type: functional, HepG2
settings: tested at 10 uM
In all, about 69,000 compounds went through this assay and about 8,600 (12%) showed an effect of 50% or more. The sample as a whole holds a higher share of strong results than the screen did.
Each entry belongs to exactly one class, chosen by where its INHIBITION falls: bottom bin (below 10%), middle bin (10% to below 40%), top bin (40% or more)

# compound, classification
records = [
    ("CSCCC1c2nc[nH]c2CCN1Cc1[nH]c2ccc(F)cc2c1C (configuration not stated)", "middle bin"),
    ("COc1nn(C)c2c1CCCN(C(=O)c1c[nH]cn1)C2", "middle bin"),
    ("O=C(c1ccc[nH]1)N1CCn2cc(CN3CCCC3)nc2C1", "middle bin"),
    ("Cc1nc(CN(C)C2CCN(CCCOc3ccccc3C)C2)no1 (configuration not stated)", "middle bin"),
    ("CN1CCN(Cc2cn3c(n2)CN(C(=O)c2cccn2C)CC3)CC1", "top bin"),
    ("CN(Cc1cnn(C)c1)CC1CCCN1c1cccnn1 (configuration not stated)", "bottom bin"),
    ("Cc1c(CN2CCc3[nH]cnc3C2C(=O)O)[nH]c2ccc(F)cc12 (configuration not stated)", "bottom bin"),
    ("CCN(CC)S(=O)(=O)N(C)Cc1ccc2c(c1)OCCO2", "bottom bin"),
    ("CNC(=O)[C@@H]1COC[C@H]2CN(C(=O)c3cccc(OC)c3)C[C@H]21", "middle bin"),
    ("Cc1ccc(S(=O)(=O)NC(=O)CCc2cscn2)cc1Cl", "bottom bin"),
    ("CCC1(O)CCCN(c2ncnc3c2c(C)nn3C)C1 (configuration not stated)", "middle bin"),
    ("CCOCCSc1nnc(Cc2ccccc2F)o1", "bottom bin"),
    ("CNC(=O)[C@@H]1COC[C@H]2CN(C(=O)c3ccc(OC)cc3)C[C@H]21", "bottom bin"),
    ("O=C(c1ccc(Br)cc1F)N1CCc2ccncc21", "bottom bin"),
    ("Cc1c(CN2C[C@H](O)[C@@H](N3CCOCC3)C2)[nH]c2ccc(F)cc12", "top bin"),
    ("CCN(CC1CCCN(CCc2cccc(OC)c2)C1)C(=O)CN(C)C (configuration not stated)", "middle bin"),
    ("O=C(Nc1ccc(Cl)cn1)C1CCCN(CCc2ccncc2)C1 (configuration not stated)", "top bin"),
    ("CCCN1CCC2(C1)c1ccccc1S(=O)(=O)N2C (configuration not stated)", "middle bin"),
    ("O=C(CCc1ccccc1)N1CCn2cc(CN3CCCC3)nc2C1", "top bin"),
    ("COCCN(CCOC)S(=O)(=O)N(C)Cc1ccncc1", "top bin"),
    ("CCN(CC)S(=O)(=O)N(C)Cc1ccncc1", "top bin"),
    ("N#Cc1ccc(C(=O)N2CCn3cc(CN4CCCCC4)nc3C2)cc1", "top bin"),
    ("CN(Cc1ccccc1O)CC1CCCN(CCc2ccc(Cl)cc2)C1 (configuration not stated)", "bottom bin"),
    ("Cc1c(CN2CC[C@@H](N3CCC(O)CC3)[C@H](O)C2)[nH]c2ccc(Cl)cc12", "middle bin"),
    ("COc1nn(C)c2c1CCCN(C(=O)c1cnccn1)C2", "middle bin"),
    ("COc1ccc(CCN2CCCC(CN(C)Cc3[nH]cnc3C)C2)cc1 (configuration not stated)", "middle bin"),
    ("COc1ccccc1CCN1CCCC(CN(C)Cc2ccc(C)o2)C1 (configuration not stated)", "middle bin"),
    ("COCCN(Cc1ccncc1)C(=O)C1COc2ccccc2C1 (configuration not stated)", "top bin"),
    ("O=C(c1c[nH]c(=O)[nH]c1=O)N1CCCC(c2nccn2CC2CCC2)C1 (configuration not stated)", "middle bin"),
    ("COc1ccc(CCN2CCCC(CN(C)Cc3ccc(C)o3)C2)cc1 (configuration not stated)", "top bin"),
    ("COc1ccccc1CCN1CCCC(CN(C)Cc2cc(C)n[nH]2)C1 (configuration not stated)", "middle bin"),
    ("CCCc1cc(C(=O)N(Cc2cccnc2)Cc2cccnc2)[nH]n1", "bottom bin"),
    ("Cc1cc(Nc2ccccn2)nc(C2CCCN(CCO)C2)n1 (configuration not stated)", "middle bin"),
    ("COc1cccc(Cc2nnc(SCCS(C)(=O)=O)o2)c1", "top bin"),
    ("CCc1ccc(C(=O)N2C[C@@H]3COC[C@@H](C(=O)NC)[C@@H]3C2)cc1", "bottom bin"),
    ("CS(=O)(=O)N1CCC2(CCN(C(=O)c3cccs3)CC2)CC1", "middle bin"),
    ("CC(=O)NCC(=O)N1CCn2cc(CN3CCCCC3)nc2C1", "top bin"),
    ("CCn1ncc2c1C(COCC1CC1)CN(S(=O)(=O)N(C)C)C2 (configuration not stated)", "middle bin"),
    ("Cc1c(CN2CCc3[nH]cnc3C2C2CC2)[nH]c2ccc(F)cc12 (configuration not stated)", "top bin"),
    ("CCN(Cc1ccncc1)S(C)(=O)=O", "middle bin"),
    ("Cc1c(CN2CC[C@@H](N3CCC(O)CC3)[C@H](O)C2)[nH]c2ccc(F)cc12", "top bin"),
    ("CN(C)c1ccc(NC(=O)NCc2cccnc2N(C)C)cn1", "middle bin"),
    ("O=C(O)c1cnc(N2CCCC2)nc1COc1ccccc1", "bottom bin"),
    ("CS(=O)(=O)CCSc1nnc(Cc2ccccc2F)o1", "top bin"),
    ("Cc1cc(CN(C)CC2CCCN(CCc3ccc(Cl)cc3)C2)[nH]n1 (configuration not stated)", "top bin"),
]
